- Tested on: E. coli
- procedure.summary: MIC values, E. coli (Tables 1-4)
- Format: cell-based
readout.type: MIC E. coli (µg/mL)
Express it in µg/mL; write the number only.

# compound, MIC E. coli, µg/mL
data = [
    ("CO[C@H]1/C=C/O[C@@]2(C)Oc3c(C)c(O)c4c(=O)c(c5sc6cc(N7CCOCC7)ccc6nc-5c4c3C2=O)NC(=O)/C(C)=C\\C=C\\[C@H](C)[C@H](O)[C@@H](C)[C@@H](O)[C@@H](C)[C@H](O)[C@@H]1C [Compound 132]", 4),
    ("CO[C@H]1/C=C/O[C@@]2(C)Oc3c(C)c(O)c4c(=O)c(c5oc6cc(N7CC[C@@H](N(C)C)C7)cc(O)c6nc-5c4c3C2=O)NC(=O)/C(C)=C\\C=C\\[C@H](C)[C@H](O)[C@@H](C)[C@@H](O)[C@@H](C)[C@H](OC(C)=O)[C@@H]1C [Compound 75]", 4),
    ("COC1C=COC2(C)Oc3c(C)c(O)c4c(=O)c(c5oc6cc(N7CC8CCCNC8C7)cc(O)c6nc-5c4c3C2=O)NC(=O)C(C)=CC=CC(C)C(O)C(C)C(O)C(C)C(OC(C)=O)C1C (stereo not shown) [Compound 141]", 8),
    ("CO[C@H]1/C=C/O[C@@]2(C)Oc3c(C)c(O)c4c(=O)c(c5oc6cc(N7CCC(N(C)C)CC7)cc(O)c6nc-5c4c3C2=O)NC(=O)/C(C)=C\\C=C\\[C@H](C)[C@H](O)[C@@H](C)[C@@H](O)[C@@H](C)[C@H](OC(C)=O)[C@@H]1C [Compound 17]", 8),
    ("COC1C=COC2(C)Oc3c(C)c(O)c4c(=O)c(c5oc6cc(N7CCC(F)C7)ccc6nc-5c4c3C2=O)NC(=O)C(C)=CC=CC(C)C(O)C(C)C(O)C(C)C(O)C1C (mixture of isomers) [Compound 122]", 4),
    ("COCCOC(=O)NC1CCN(c2cc(O)c3nc4c5c6c7c(C)c(O)c5c(=O)c(c-4oc3c2)NC(=O)/C(C)=C\\C=C\\[C@H](C)[C@H](O)[C@@H](C)[C@@H](O)[C@@H](C)[C@H](O)[C@H](C)[C@@H](OC)/C=C/O[C@@](C)(O7)C6=O)CC1 [Compound 63]", 8),
]

Recorded MIC E. coli (compound CO[C@H]1/C=C/O[C@@]2(C)Oc3c(C)c(O)c4c(=O)c(c5oc6cc(N7C[C@@H]8CCCN(C)[C@@H]8C7)cc(O)c6nc-5c4c3C2=O)NC(=O)/C(C)=C\C=C\[C@H](C)[C@H](O)[C@@H](C)[C@@H](O)[C@@H](C)[C@H](O)[C@@H]1C [Compound 59] ): 4

Recorded MIC E. coli (compound CO[C@H]1/C=C/O[C@@]2(C)Oc3c(C)c(O)c4c(=O)c(c5sc6cc(N7CCCN(C)CC7)ccc6nc-5c4c3C2=O)NC(=O)/C(C)=C\C=C\[C@H](C)[C@H](O)[C@@H](C)[C@@H](O)[C@@H](C)[C@H](O)[C@@H]1C [Compound 125] ): 2

Attribution: patent US20070142392A1
